Where do these numbers come from? They come from paper PMC8073976.

Exercise: state measured RCY NP (7 d) for each of the compounds provided.
# measurementDescription: 225Ac-labeling of ligands in serial dilution, radiochemical yield and 7-day stability by TLC
# Type: physicochemical
# settings: ligand 10^−5 M, 100 kBq actinium-225, 0.2 M ammonium acetate buffer pH 6, after seven days; normal phase TLC, silica, 50 mM EDTA pH 7
Quick reminder: number only, in %, skip the unit.

Task: # input compound: O=C(O)CC[C@H](NC(=O)N[C@@H](CCCCNC(=O)[C@H](Cc1ccc2ccccc2c1)NC(=O)[C@H]1CC[C@H](CNC(=O)CCCCn2cc(COc3cc(CN4CCOCCOCCN(Cc5cc(OCc6cn(CCCCC(=O)NC[C@H]7CC[C@H](C(=O)N[C@@H](Cc8ccc9ccccc9c8)C(=O)NCCCC[C@H](NC(=O)N[C@@H](CCC(=O)O)C(=O)O)C(=O)O)CC7)nn6)cc(C(=O)O)n5)CCOCCOCC4)nc(C(=O)O)c3)nn2)CC1)C(=O)O)C(=O)O [[^225Ac]Ac-mcp-D-PSMA, metal not drawn] ; wanted: its RCY NP (7 d)
Output: 99

Task: Give the measured RCY NP (7 d) of C#CCOc1cc(CN2CCOCCOCCN(Cc3cc(OCC#C)cc(C(=O)[O-])n3)CCOCCOCC2)nc(C(=O)[O-])c1.[225Ac+3] [[^225Ac]Ac-mcp-D-click] .
Output: 99

Task: Data request, read-out RCY NP (7 d), for O=C(O)CC[C@H](NC(=O)N[C@@H](CCCCNC(=O)[C@H](Cc1ccc2ccccc2c1)NC(=O)[C@H]1CC[C@H](CNC(=O)CCCCn2cc(COc3cc(CN4CCOCCOCCN(Cc5cccc(C(=O)O)n5)CCOCCOCC4)nc(C(=O)O)c3)nn2)CC1)C(=O)O)C(=O)O [[^225Ac]Ac-mcp-M-PSMA, metal not drawn]
Output: 99

Task: Data request, read-out RCY NP (7 d), for O=C(O)CCCCn1cc(COc2cc(CN3CCOCCOCCN(Cc4cccc(C(=O)[O-])n4)CCOCCOCC3)nc(C(=O)[O-])c2)nn1.[225Ac+3] [[^225Ac]Ac-mcp-M-COOH]
Output: 99

Task: Which RCY NP (7 d) value is on record for O=C([O-])c1cccc(CN2CCOCCOCCN(Cc3cccc(C(=O)[O-])n3)CCOCCOCC2)n1.[225Ac+3] [[^225Ac]Ac-macropa, reference compound] ?
Output: 99

Task: Any idea what RCY NP (7 d) was measured for C#CCOc1cc(CN2CCOCCOCCN(Cc3cccc(C(=O)[O-])n3)CCOCCOCC2)nc(C(=O)[O-])c1.[225Ac+3] [[^225Ac]Ac-mcp-M-click] ?
Output: 99

----------
For each entry below, report its RCY RP (7 d) value.
# measurementDescription: 225Ac-labeling of ligands in serial dilution, radiochemical yield and 7-day stability by TLC
# Type: physicochemical
# settings: ligand 10^−7 M, 100 kBq actinium-225, 0.2 M ammonium acetate buffer pH 6, after seven days; reversed-phase TLC, Alugram RP-CN, acetonitrile/water 7/3
Write the value in % as a bare number.

Task: So what's the measured RCY RP (7 d) for this one? C#CCOc1cc(CN2CCOCCOCCN(Cc3cccc(C(=O)[O-])n3)CCOCCOCC2)nc(C(=O)[O-])c1.[225Ac+3] [[^225Ac]Ac-mcp-M-click]
Output: 55

Task: What RCY RP (7 d) value was documented for this compound, O=C([O-])c1cccc(CN2CCOCCOCCN(Cc3cccc(C(=O)[O-])n3)CCOCCOCC2)n1.[225Ac+3] [[^225Ac]Ac-macropa, reference compound] ?
Output: 99

Task: Could you tell me which RCY RP (7 d) is on file for O=C(O)CCCCn1cc(COc2cc(CN3CCOCCOCCN(Cc4cccc(C(=O)[O-])n4)CCOCCOCC3)nc(C(=O)[O-])c2)nn1.[225Ac+3] [[^225Ac]Ac-mcp-M-COOH] ?
Output: 96

Task: Query: RCY RP (7 d); subject: C#CCOc1cc(CN2CCOCCOCCN(Cc3cc(OCC#C)cc(C(=O)[O-])n3)CCOCCOCC2)nc(C(=O)[O-])c1.[225Ac+3] [[^225Ac]Ac-mcp-D-click]
Output: 40
